Each recorded value in this set is attributed to ChEMBL document CHEMBL3433997.

# Assay target: Glucose transporter (Leishmania mexicana)
# Assay comment: ST_JUDE_LEISH: Cytotoxicity at 2uM final concentration against transgenic Leishmania Mexicana promastigotes LmGT2 that are glucose transport deficient and complemented with the L. Mexicana glucose transporter 2. Activity is measured by DNA content using SYBR green in vitro
# Type: functional
Test readout: inhibition (%)
I only need the number, in %, no unit after it.

Record CC(=O)c1c[nH]c2ccc(/C=C/C(=O)NC3CCC(CCN4CCc5ccc(C#N)cc5CC4)CC3)cc12 (centres undefined) / Glucose transporter (Leishmania mexicana), inhibition recorded as 18.9

Record CC(C)N1CCN(c2ccc(OCCCCN3CCN(c4cccc(Cl)c4Cl)CC3)c(C(F)(F)F)c2)CC1 / Glucose transporter (Leishmania mexicana), inhibition recorded as 0.98

Record O=C(/C=C/c1ccc(Cl)c(Cl)c1)NCCCCCN1CCC(NC(=O)Nc2ccc(F)c(Cl)c2)CC1 / Glucose transporter (Leishmania mexicana), inhibition recorded as 6.8

Record CCCC(C)Nc1nc(C)cc(N[C@@H](Cc2ccccc2)C(=O)NCCc2ccccc2)n1 (some centres undefined) / Glucose transporter (Leishmania mexicana), inhibition recorded as -0.17

Record CC(Cc1ccc(CN2CCN(Cc3ccccc3)CC2)cc1)NCC(O)c1cccc(C(F)(F)F)c1 (centres undefined) / Glucose transporter (Leishmania mexicana), inhibition recorded as 5.25

Record COc1cc(CN2CCC(C(=O)Nc3ccc(-c4cccc(C)c4)cc3)CC2)ccc1O / Glucose transporter (Leishmania mexicana), inhibition recorded as 4.91

Record O=C(NCc1cccs1)[C@H](Cc1ccccc1)Nc1ccnc(NCC2CCCCC2)n1 / Glucose transporter (Leishmania mexicana), inhibition recorded as 10.6

Record CCc1c[nH]c2c(N3CCCCC3=O)cc(C(=O)N[C@@H](Cc3ccccc3)[C@H](O)CNCc3cccc(OC)c3)cc12 / Glucose transporter (Leishmania mexicana), inhibition recorded as 0.87

Record Nc1nccc2ccc(-c3ccc(OCc4ccccc4)cc3)cc12 / Glucose transporter (Leishmania mexicana), inhibition recorded as 1.39

====

# Assay target: Hexose transporter 1 (Plasmodium falciparum) (UniProt O97467)
# Assay comment: ST_JUDE_LEISH: Cytotoxicity at 2uM final concentration against transgenic Leishmania Mexicana promastigotes LmPfHT that are glucose transport deficient and complemented with the Plasmodium falciparum hexose transporter. Activity is measured by DNA content using SYBR green in vitro
# Assay type: functional
Can you tell me inhibition for the items I'm about to list?
I only need the number, in %, no unit after it.

inhibition in this record for CC(=O)Nc1ccc(C(=O)Nc2cccc(-c3cccc(-c4nc5cc(F)ccc5[nH]4)c3)c2)cn1 : 10.8

inhibition in this record for O=C(NCCCCN1CCC(c2ccc(OC(F)(F)F)cc2)CC1)c1ccc(NC(=O)c2ccc(Cl)cc2)cc1 : 0.81

inhibition in this record for COc1ccc2c(c1C1CCN(CCCCNC(=O)c3ccc(-c4ccc(Cl)cn4)cc3)CC1)CCCC2 : 2.74

inhibition in this record for COc1ccc2nccc([C@@H](O)CN3CCC(NCc4nc5c(C#N)cccc5[nH]4)CC3)c2c1 : 3.33

inhibition in this record for O=C(/C=C/c1ccc(Cl)c(Cl)c1)NCCCCCN1CCC(NC(=O)Nc2ccc(F)c(Cl)c2)CC1 : 4.82

inhibition in this record for O=C(/C=C/c1ccc(C(F)(F)F)cc1)NCCCCCN1CCCN(C(=O)Nc2ccc(Cl)c(C(F)(F)F)c2)CC1 : 0.4

inhibition in this record for CCC[C@@H]([C@@H](CC(C)C)C(=O)N[C@@H](CCCNc1nccc(C(F)(F)F)n1)C(=O)Nc1nccs1)N(O)C=O : 4.8

inhibition in this record for Cc1cc(N[C@@H](Cc2ccccc2)C(=O)Nc2ccccc2)nc(NCCc2ccccc2)n1 : 5.68

inhibition in this record for Cc1ccccc1C1CCN(C2CCC(NC(=O)/C=C/c3ccc(F)c(F)c3)CC2)CC1 (stereo not given) : -1.74

inhibition in this record for COc1ccc(CCNC(=O)c2cc(C)ccc2O)cc1-c1ccc(C(C)(C)C)cc1 : 2.89

inhibition in this record for O=C(NCC1CCN(Cc2cccc(C(F)(F)F)c2)C1)c1cc(-c2cccc(F)c2)cs1 (stereo not given) : 5.35

inhibition in this record for CC(C)(C)c1nn(-c2ccccc2)c2[nH]c(=O)c(CNC3CCCCC3)cc12 : 1.5

inhibition in this record for C=CCOC(=O)N1CCC(CNCc2cccc(-c3ccc(-c4nc5cccc(C)c5[nH]4)cc3)c2)C1 (stereo not given) : 8.62

inhibition in this record for Oc1ccc(Cl)cc1CN1CCCC(COC(c2ccc(F)cc2)c2ccc(F)cc2)C1 (stereo not given) : 1.7

inhibition in this record for CNCCNc1nccc(N2CCc3ncnc(Nc4ccc(OCc5cccc(F)c5)c(Cl)c4)c3C2)n1 : 5

inhibition in this record for CC(=O)N(C)C1CCN(Cc2cccc(-c3ccc(-c4nc5cc(F)ccc5[nH]4)cc3)c2)C1 (stereo not given) : 2.4

inhibition in this record for Cc1ccc(Nc2nc(C)cc(NC3CC3)n2)cc1 : 6.75

inhibition in this record for CCOC(=O)c1c(CSc2ccccc2)oc2cc(CN(C)C)c(O)c(Cl)c12 : 0.44

inhibition in this record for CCN1CCN(C(=O)NC(C(=O)N2CCCC(COc3ccc(Cc4ccccc4)cc3)C2)c2cccs2)C(=O)C1=O (stereo not given) : 3.3

inhibition in this record for COc1ccc2c(NN=Cc3cccc(C)n3)ccnc2c1 : 5.22

inhibition in this record for COc1ccc(C(=O)N2CCC3(CC2)C(=O)N(CC(=O)NCC2CCCCC2)CN3c2ccccc2)cc1 : 4.58

inhibition in this record for Cc1ccc(CN2CCN(CC(O)COc3ccc4c(c3)CCC4)CC2)cc1 (stereo not given) : 0.88

inhibition in this record for NC(=O)c1cccc(Nc2nccc(Nc3ccc(Oc4cccc(Cl)c4)c(Cl)c3)n2)c1 : 9.87

inhibition in this record for CCc1cc2c3c(N)nc(N)nc3ccc2n1C(CC)CC : 72.7

inhibition in this record for Cc1cc(C)c(C(=O)Nc2ccc3nc(C)cc(N)c3c2)c(C)c1 : 1.52

inhibition in this record for CS(=O)(=O)CCNCc1ccc(-c2ccc3ncnc(Nc4ccc(OCc5ccccc5)c(Cl)c4)c3c2)o1 : -1.51

inhibition in this record for CNCCCNCc1ccc(-c2ccc(F)c(Cl)c2)o1 : 1.28

inhibition in this record for Cc1ccc2[nH]c(Nc3ccc(Nc4nc5cc(C)ccc5[nH]4)c(C)c3)nc2c1 : 2.18

inhibition in this record for Cc1cc2nc(-c3ccc(C(=O)NCc4cccc(F)c4)cc3)[nH]c2cc1C : 0.73

inhibition in this record for CCOC(=O)c1ccc2[nH]c(-c3ccc(C(=O)NCc4ccc(C(C)(C)C)cc4)cc3)nc2c1 : 2.27

inhibition in this record for CC(C)Sc1nc2c(c(=O)n1CCc1ccccc1)C1(CCCC1)Cc1ccccc1-2 : 2.51

inhibition in this record for Oc1cc2ccccc2cc1CNC1CCCCC1 : 1.41

inhibition in this record for O=C(Nc1ccc(Cl)c(Cl)c1)N(Cc1ccccc1Br)C1CCNCC1 : 3.45

inhibition in this record for N=c1n(CCN2CCCCC2)c2ccccc2n1CC(O)c1ccc(Cl)c(Cl)c1 (stereo not given) : -0.46

inhibition in this record for Cc1ccc2[nH]c(C)c(Br)c(=O)c2c1 : -2.07

inhibition in this record for CC[C@H](C)CNC(=O)c1cccc(-c2cccc(CNCC3CNCCCO3)c2)n1 (stereo not given in full) : -0.61

inhibition in this record for CCc1cccc2c(C#N)cn(CC(=O)NCCc3ccccc3)c12 : 9.88

inhibition in this record for CC1(C)N=C(N)N=C(N)N1c1ccc(Cl)c(Cl)c1 : 0.49

inhibition in this record for CCCCN(CCCC)Cc1cc(N(C)c2ccc([N+](=O)[O-])cn2)ccc1O : -0.26

inhibition in this record for Cc1[nH]c(C)c(-c2ccc(Oc3cccc(Cl)c3)cc2)c(=O)c1Cl : 7.78
